- assay-details: in vitro
- run-parameters: human, hela cells, % viability

{"compound": "CCC(SC1=NCCS1)C(=O)Nc1ccc(NC(C)=O)cc1 (stereo not shown)", "viability at 28.5 h, 10 µM [%]": 97.4}
{"compound": "O=C(O)/C=C\\C(=O)Nc1ccc(OCC(=O)O)cc1", "viability at 28.5 h, 10 µM [%]": 102}
{"compound": "Cn1cc(CCCC(=O)NCCC2=CCCCC2)c2ccccc21", "viability at 28.5 h, 10 µM [%]": 99.2}
{"compound": "COc1cc([N+](=O)[O-])ccc1NC(=S)NCc1ccc(S(N)(=O)=O)cc1", "viability at 28.5 h, 10 µM [%]": 100}
{"compound": "COc1ccccc1NC(=O)N1CCC2(CC1)NC(=O)Cc1cc3ccccc3cc12", "viability at 28.5 h, 10 µM [%]": 92.1}
{"compound": "COc1ccc(C(C)C)cc1-c1ccnc2[nH]c(=O)ccc12", "viability at 28.5 h, 10 µM [%]": 102}
{"compound": "CC(=O)Nc1cccc(NC(=O)c2cc(-c3ccccn3)nc3ccc(Cl)cc23)c1", "viability at 28.5 h, 10 µM [%]": 95.1}
{"compound": "COc1ccc(C(=O)NNC(=O)c2cccc(Cl)c2)cc1OC", "viability at 28.5 h, 10 µM [%]": 91.4}
{"compound": "COc1ccc(Cl)cc1NC(=S)NNC(=O)c1cc(C)nc2ccccc12", "viability at 28.5 h, 10 µM [%]": 50.5}
{"compound": "Brc1ccc2nc3c(nc2c1)Nc1nonc1N3", "viability at 28.5 h, 10 µM [%]": 78.5}
